Value source: ChEMBL document CHEMBL3046714

# Test system: Bombyx mori
# experimental details: Precocious metamorphosis-inducing activity in Bombyx mori Shunrei x Shougetsu fourth-instar larvae assessed as change in body weight at >160 ug applied topically measured every 12 hr during fourth-instar period
# Format: functional
test readout: Activity (%)
Write down the numeric answer in % and omit the unit.

The cases that follow already have their Activity on record.
| smiles representation | reading unit | Activity |
| --- | --- | --- |
| CC=C(C)c1cccnc1 | % | 20 |
| CC=Cc1cccnc1 | % | 0 |
| CCOC(=O)/C=C/c1cccnc1 | % | 0 |
| CCCCCC=C(c1ccccc1)c1cccnc1 | % | 35 |
| C(=C\c1cccnc1)/c1ccccc1 | % | 9 |
| CCOC(=O)/C=C(\C)c1cccnc1 | % | 5 |

Now for another entry.
Let me know recorded Activity for CCOC(=O)/C=C(/C)c1cccnc1 , thanks.
0
